Measured IC50, listed per entry.
- target.system: system Xc^− (Homo sapiens)
- Sequence (Q9UPY5 whole entry): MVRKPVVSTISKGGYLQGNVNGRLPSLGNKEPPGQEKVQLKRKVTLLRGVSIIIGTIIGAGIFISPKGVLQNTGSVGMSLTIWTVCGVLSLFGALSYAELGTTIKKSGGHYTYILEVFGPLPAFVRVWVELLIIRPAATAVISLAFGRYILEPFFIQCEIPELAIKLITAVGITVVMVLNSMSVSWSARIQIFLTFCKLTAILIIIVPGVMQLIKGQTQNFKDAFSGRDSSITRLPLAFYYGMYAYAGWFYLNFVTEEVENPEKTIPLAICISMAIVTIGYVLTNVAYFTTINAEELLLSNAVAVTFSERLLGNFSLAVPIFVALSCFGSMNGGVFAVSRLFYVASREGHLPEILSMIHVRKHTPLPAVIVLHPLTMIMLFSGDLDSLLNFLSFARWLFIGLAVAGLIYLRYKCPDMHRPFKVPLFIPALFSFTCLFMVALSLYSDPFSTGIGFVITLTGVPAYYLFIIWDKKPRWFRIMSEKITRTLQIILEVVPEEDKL
- Sequence (P08195 102-630 partner): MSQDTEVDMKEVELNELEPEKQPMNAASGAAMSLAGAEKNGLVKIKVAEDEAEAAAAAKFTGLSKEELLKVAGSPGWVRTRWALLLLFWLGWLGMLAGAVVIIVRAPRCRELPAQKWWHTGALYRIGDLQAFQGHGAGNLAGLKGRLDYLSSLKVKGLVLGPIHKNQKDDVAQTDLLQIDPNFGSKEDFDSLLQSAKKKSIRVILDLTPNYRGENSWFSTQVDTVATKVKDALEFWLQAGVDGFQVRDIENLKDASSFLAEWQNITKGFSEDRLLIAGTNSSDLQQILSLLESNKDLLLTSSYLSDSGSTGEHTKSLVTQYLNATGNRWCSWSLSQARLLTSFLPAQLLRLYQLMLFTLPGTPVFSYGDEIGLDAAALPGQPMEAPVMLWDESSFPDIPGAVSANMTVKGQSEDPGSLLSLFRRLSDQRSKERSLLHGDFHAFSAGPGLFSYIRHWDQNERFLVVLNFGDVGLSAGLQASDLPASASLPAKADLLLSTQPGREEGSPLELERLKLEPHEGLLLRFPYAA
- measurement.notes: Cystine-induced glutamate release assay
- Type: cell-based
- Parameters: endogenous in cells; host or cells: H4 cells
- details: H4 cells, sodium-free HEPES buffer, 50 μM L-Cystine, 2 hours, Amplex Red glutamate readout; read-out: pIC50 Cystine-induced glutamate release assay (converted)

See these solved cases before continuing.
molecule	IC50
Cc1cc2c(cn1)-c1cccc(F)c1CC(=O)N2CC(=O)Nc1ccc(C(F)(F)F)cc1 [#35]	39.8 to 100 nM
COc1cc2c(c(F)n1)-c1cc(F)cnc1C(C)C(=O)N2CC(=O)Nc1ccc(Cl)c(F)c1 (single isomer, unassigned) [#403]	< 15.8 nM
Cc1cc2c(c(=O)n1C)-c1ccnn1C(C)C(=O)N2CC(=O)Nc1ccc(C(F)F)cc1 (single isomer, unassigned) [#358]	15.8 to 39.8 nM
CC1C(=O)N(CC(=O)Nc2ccc(C(F)F)cc2)c2cc(C3CC3)c(=O)n(C)c2-c2ccccc21 (stereo not drawn) [#322]	15.8 to 39.8 nM

Pending molecule:
I'm curious: which IC50 was measured for Cc1cc2c(c(F)n1)-c1cc[nH]c(=O)c1CC(=O)N2CC(=O)Nc1ccc(C(F)(F)F)cc1 [#183] tested on system Xc^− (Homo sapiens)? 100 to 501 nM
